As shown below, each of these binders has a reported Kd value.
test system: T1, GbpC (glucan-binding protein C), extracellular fragment (Streptococcus mutans, UniProt Q8DTF1 111-522)
T1 sequence: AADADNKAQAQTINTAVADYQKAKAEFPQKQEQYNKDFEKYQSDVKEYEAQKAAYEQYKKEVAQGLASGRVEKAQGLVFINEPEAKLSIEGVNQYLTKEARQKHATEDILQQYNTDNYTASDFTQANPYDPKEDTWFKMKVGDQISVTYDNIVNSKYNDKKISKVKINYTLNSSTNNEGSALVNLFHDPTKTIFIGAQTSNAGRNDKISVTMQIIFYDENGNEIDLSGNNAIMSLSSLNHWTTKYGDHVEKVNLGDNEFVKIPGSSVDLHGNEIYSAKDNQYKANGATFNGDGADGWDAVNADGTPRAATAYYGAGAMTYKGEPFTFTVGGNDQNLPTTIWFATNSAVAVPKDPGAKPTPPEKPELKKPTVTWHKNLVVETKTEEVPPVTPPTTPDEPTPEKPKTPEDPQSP
assay name: MST

| binder | Kd |
| --- | --- |
| A96 (flanked) (ssDNA) DNA: AGATACCAATACGCTGCCCCGCCGGTCCCGAGCTACAACACTTTACGCCCCCCTCCCCGCCACTGGTAACGACATC | 8.5 µM |
| CCGCCGGTCCCGAGCTACAACACTTTACGCCCCCCTCCC (ssDNA) [A96 truncated] | 66.9 µM |
| TAGCCCCTACCCTGTTGCTCCCCCTCGCCCCTCTCACCCC (ssDNA) [A39 truncated] | 19.6 µM |
